Quick reference for melting point among some molecules

COc1ccc(Cl)c(Oc2c(COCC(O)CO)nc(N3CCOCC3)nc2NS(=O)(=O)c2ccc(C(C)C)cn2)c1 (racemic)
116 °C
O=C(O)c1csc(-c2ccc(OCC(F)(F)C(F)F)cc2)n1
170 to 173 °C
CC(=O)NCC1CN(c2ccc(N3CCN(c4nnc(C(F)(F)F)s4)CC3)c(F)c2)C(=O)O1 (stereo unspecified)
255 to 257 °C
CCCCCCCCCCCCCCOc1ccc2c(C)cc(=O)oc2c1
61 to 62 °C
COC(=O)[C@H](O)[C@@H](NS(=O)(=O)c1c2ccccc2cc2ccccc12)c1ccccc1
98 to 102 °C

Asked: Recorded melting point for COC(=O)C(C)(C)Oc1cc(C)c(C)c(Br)c1C , please?
Given back: 66 to 68 °C
